Here, compounds appear alongside IC50 reported for Receptor tyrosine-protein kinase erbB-2 (Homo sapiens) in the literature.
Measured attribute: IC50 (nM)

P = CCOC(=O)CSc1nc2c(C)cc(Cl)cc2c(=O)n1Cc1ccccc1
Q = COc1cc2nc(-c3ccc(-c4ccco4)cc3)cc(OCCCN3CCN(C)CC3)c2cc1OC
R = CCOC(=O)C1=C(C(F)(F)F)NC2=C(C(=O)CC(C)(C)C2)C1c1ccc(S(=O)(=O)c2ccccc2)cc1 (stereo not shown)
Rank by decreasing IC50 the items listed here. Provide your answer as the labels ordered per the instruction.
Q, P, R
(Q: 989 nM, P: 343 nM, R: 0.3 nM)

====

Listed below are compounds with IC50 for Receptor tyrosine-protein kinase erbB-2 (Homo sapiens), each taken from published literature.
Measured attribute: IC50 (nM)

Study these solved cases before continuing.
Compound	Measured attribute	Observed value
COc1cc2nc(-c3ccc(Cl)cc3)cc(OCCCNC3CCCCC3)c2cc1OC	IC50	123
NNC(=O)CSc1nc2c(F)cc(F)cc2c(=O)n1Cc1ccccc1	IC50	248
C=C(CN1CCCCC1)C(=O)N1CCC[C@@H](n2nc(-c3ccc(Oc4ccccc4)cc3)c3c(N)ncnc32)C1	IC50	33
COc1ccc(C2=NN(C3=NC(=O)CS3)C(c3ccc(Cl)cc3)C2)cc1OC (stereo not drawn)	IC50	81
CCOC(=O)CSc1nc2ccc(Cl)cc2c(=O)n1Cc1ccccc1	IC50	264

P = Cc1ccc(S(=O)(=O)c2ccc(C3C(C(=O)c4ccccc4)=C(N)NC4=C3C(=O)CC(C)(C)C4)cc2)cc1 (stereo not drawn)
Q = C=CC(=O)Nc1cccc(Nc2nc(Nc3ccc(N4CCN(C)CC4)nc3OC)ncc2C(F)(F)F)c1
Which value of IC50 is greater, the one for P or the one for Q ? Lab note: record the label of whichever item you select.
Q

A = CC(C)=CCC/C(C)=C/Cc1c(O)cc2c(c1O)C(=O)[C@H](O)[C@@H](c1ccc(O)cc1)O2
B = COc1cc2nc(-c3ccc(C)cc3)cc(OCCCNC3CCCCC3)c2cc1OC
Parameter metric = IC50. Return the lower-valued option from A and B . Mark your selection by writing its label.
B

====

Recorded IC50 for compounds tested on Receptor tyrosine-protein kinase erbB-2 (Homo sapiens, UniProt P04626), drawn from a number of studies.
Measured attribute: IC50 (nM)

Past entries and their recorded results:
Compound	IC50 (nM)
COc1cc2nc(-c3ccc(C)cc3)cc(OCCCN3CCN(C)CC3)c2cc1OC	1350
COc1cc2nc(-c3ccc(C)cc3)cc(OCCCNCC3CCCO3)c2cc1OC (stereo not drawn)	1390
Cc1cc(Cl)cc2c(=O)n(Cc3ccccc3)c(SCC(=O)NN)nc12	222
COc1cc2nc(-c3ccc(C(F)(F)F)cc3)cc(OCCCn3ccnc3)c2cc1OC	206
CC(C)=CCC/C(C)=C/Cc1c(O)cc2c(c1O)C(=O)CC(c1ccc(O)c(O)c1)O2 (stereo not drawn)	180

A = O=C(CSc1nc2ccccc2o1)NN=Cc1ccc[nH]1 (mixture of isomers)
B = COc1cc2nc(-c3ccc(C)cc3)cc(OCCCn3ccnc3)c2cc1OC
Between the entries labelled A and B , which has a larger IC50 value on record? # answer = label of selected item
B

====

Below, pIC50 values reported for Receptor tyrosine-protein kinase erbB-2 (Homo sapiens, UniProt P04626) across several publications.
pIC50: −log10 of the molar value.
Measured attribute: pIC50

1 = C=C(CNCc1ccccc1)C(=O)N1CCC[C@@H](n2nc(-c3ccc(Oc4ccccc4)cc3)c3c(N)ncnc32)C1
2 = CCOC(=O)c1sc(N2N=C(c3ccc(OC)c(OC)c3)CC2c2ccc(Cl)cc2)nc1C (centres unmarked)
3 = COc1ccc(C2=NN(c3nc(-c4ccc(F)cc4)cs3)C(c3ccc(Cl)cc3)C2)cc1OC (centres unmarked)
4 = COc1cc2nc(-c3ccc(Cl)cc3)cc(OCCCNC3CCN(C)CC3)c2cc1OC
5 = CC(C)=CC[C@@H](O)/C(C)=C/Cc1cc(C(=O)O)cc(C/C=C(\C)CO)c1O
Output the entries ranked by pIC50 from maximum down to minimum. Lab note: final answer is the ordered label list.
1, 3, 2, 4, 5
